- Test system: U2OS
- protocol: Multiplex assay against U2OS
- Type: toxicity, cell-based
- experimental-context: human, 48 h, 10 µM, compound concentration 10 uM, replicate 2
Hi there, I'd appreciate the recorded Population Healthy Nuclei (%) for every entry that follows.
Include the unit right after the number.

{"columns": ["molecule", "tested-on", "Population Healthy Nuclei (%)"],
 "data": [
  ["Cc1noc(-c2ccc(-c3ccc(CC(=O)O)cc3)cc2)c1NC(=O)O[C@H](C)c1ccccc1Cl", "U2OS", "78%"],
  ["Cc1cccc(NC(=O)CN2CCC(c3ccccn3)CC2)c1.Cl.Cl", "U2OS", "74%"]
]}

List the reported Population Healthy Nuclei (%) of each molecule below.
1. CCCCC(=O)N(Cc1ccc(-c2ccccc2-c2nnn[nH]2)cc1)[C@H](C(=O)O)C(C)C
2. Cl.NCCc1ccc(O)c(O)c1 [DOPAMINE HYDROCHLORIDE]

## Result
1. 60%
2. 76%

List the reported Population Healthy Nuclei (%) of each molecule below.
1. N#Cc1c(Oc2cccc(OS(=O)(=O)CCCC(F)(F)F)c2)cccc1C(F)(F)F
2. O=C1[C@H](Cc2ccc(O)cc2)N2C(=O)CCN(C(=O)NCc3ccccc3)[C@H]2CN1Cc1cccc2ccccc12
3. CC[C@@H](C)Nc1nc(C)nc2c(-c3ccc(OC)nc3C)c(C)nn12

## Result
77%
46%
77%

List the reported Population Healthy Nuclei (%) of each molecule below.
1. Br.CS(=O)(=O)Nc1c(O)ccc2c1CCCC2C1=NCCN1 (centres undefined)
2. O=C(CCCc1ccccc1)Nc1nc2ccccc2c(=O)s1
3. Cc1sc2c(c1C)C(c1ccc(Cl)cc1)=N[C@@H](CC(=O)NCCCCCCCCNC(=O)COc1cccc3c1C(=O)N(C1CCC(=O)NC1=O)C3=O)c1nnc(C)n1-2 (some centres undefined)
4. CN(C)C(=O)Cn1cc(-c2ccc(-c3cncc4ccccc34)cc2)cn1
5. CCc1cc2cc(NS(=O)(=O)c3ccc(C#N)cc3)ccc2n(CC)c1=O
6. CCCCCC(O)/C=C/[C@H]1C(=O)CC(O)C1C/C=C\CCCC(=O)O (some centres undefined)
7. Cc1c(CC(=O)O)c2cccnc2n1Cc1ccc(S(C)(=O)=O)cc1C(F)(F)F

## Result
74%
72%
70%
68%
73%
70%
76%
